System: MS2 coat protein
ASSAY_OVERVIEW: apparent KD of MS2 coat protein; designed switch direction (-1 OFF switch, 1 ON switch): -1; higher = weaker reporter binding
RUN_CONDITIONS: Eterna round: R95; input ligand: microRNA oligo, concentration not stated
So basically: apparent KD of MS2 coat protein at 20 nM or higher? That is Condition met. Lower than 20 nM? That is Condition not met.

RESIDUE_STRING: UUAAUGUGAGGAUAUCAAGAGAGAAAGAGUAAUGGUAAAUAUGAGAAGGCACAUGAGGAUCACCCAUGUUCUUC [Mat - Exclusion 4 - Mod of JL - D60] (puzzle: Exclusion 4)
QUALITATIVE_LABEL: Condition not met

RESIDUE_STRING: UUAUACGUUGAGGAUAUGCGAUUUAGUAUAGUUGUAGAAGGCGAUACAUGAGGAUCACCCAUGUUUAUGGGCAU [LRO-Ex6-08] (puzzle: Exclusion 6)
QUALITATIVE_LABEL: Condition met

Task item: Exam item: decide whether the reported apparent KD of MS2 coat protein for CGUGGACAUGAGGAUCACCCAUGUGAGGAUAUCGGCUGGUACGUGUUGGCUGGCAUCUCGAGAAGGCACAUAGU [Exclusion 1 V62] (puzzle: Exclusion 1) is at least 20 nM.
Reply: Condition met

Task item: Exam item: decide whether the reported apparent KD of MS2 coat protein for AAUAAAUAGGAGGAUAUCGUAUCGGAAACGAUACGAGAAGGUCUAACAUGAGGAUCACCCAUGUUCCUCAAUAA [Mat - Exclusion 6 - Eli Mod - D45] (puzzle: Exclusion 6) is at least 20 nM.
Reply: Condition met

Task item: Exam item: decide whether the reported apparent KD of MS2 coat protein for GAUUAUGCGAGCUUUAGGGACAUGAGGAUCACCCAUGUUCGUCUUAUUGGUCUAGGUACACUAACAUACCUAAAUCU [JMF 19] (puzzle: Sensor v3, turn-off variant 1) is at least 20 nM.
Reply: Condition met

Task item: Exam item: decide whether the reported apparent KD of MS2 coat protein for AUUUUGUCAGGAUAUGAGUAGUAGGACGAAAGUGUUAUUAUUUAGAAGGGACAUGAGGAUCACCCAUGUUUUCC [Bring Us a Shrubbery-04] (puzzle: Exclusion 4) is at least 20 nM.
Reply: Condition not met

Task item: Exam item: decide whether the reported apparent KD of MS2 coat protein for AAAAUAAAAGUCAGGAUAUUCCUACAACGACUAAGGAAGAAGGGACAUGAGGAUCACCCAUGUGGUCUUCCGAA [Onesti] (puzzle: Brourd's mod of Exclusion 4) is at least 20 nM.
Reply: Condition not met

Task item: Exam item: decide whether the reported apparent KD of MS2 coat protein for CCUUUGUCAGGAUAUCGAAAAGGGAGGCCAAAAGCCUCCGGUGAGAAGGGACAUGAGGAUCACCCAUGUGAAAA [Usleaor] (puzzle: Exclusion 4) is at least 20 nM.
Reply: Condition met
